Reported values of Mean % WT Binding for individual entries
Target: human CD33 S115A (human, UniProt P20138 18-364)
Sequence (P20138 18-364 S115A limits assumed): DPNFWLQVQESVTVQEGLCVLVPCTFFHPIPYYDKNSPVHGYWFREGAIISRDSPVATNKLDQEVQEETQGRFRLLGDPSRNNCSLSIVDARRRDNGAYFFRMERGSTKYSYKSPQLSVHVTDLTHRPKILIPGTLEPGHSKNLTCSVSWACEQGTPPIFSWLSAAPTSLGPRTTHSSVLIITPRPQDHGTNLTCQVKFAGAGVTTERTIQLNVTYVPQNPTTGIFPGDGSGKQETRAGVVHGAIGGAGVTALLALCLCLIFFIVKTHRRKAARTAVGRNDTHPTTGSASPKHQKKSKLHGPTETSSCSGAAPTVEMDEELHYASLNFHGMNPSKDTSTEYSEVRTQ
Experiment: flow cytometry on HEK293-T, alanine scan
attributeMeasured: Mean % WT Binding (% WT binding)

{"columns": ["binder", "valueObserved"],
 "data": [
  ["Refmab #4 (antibody, V domains shown, The alanine scan used IgG or Fab) VH: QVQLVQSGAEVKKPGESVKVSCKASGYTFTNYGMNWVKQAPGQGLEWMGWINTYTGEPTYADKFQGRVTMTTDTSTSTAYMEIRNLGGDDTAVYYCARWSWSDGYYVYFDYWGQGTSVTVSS VL: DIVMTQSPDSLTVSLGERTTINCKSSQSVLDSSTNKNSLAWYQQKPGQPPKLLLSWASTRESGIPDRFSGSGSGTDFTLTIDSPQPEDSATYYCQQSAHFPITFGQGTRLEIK", 36.4],
  ["Refmab #3 (antibody, V domains shown, The alanine scan used IgG or Fab) VH: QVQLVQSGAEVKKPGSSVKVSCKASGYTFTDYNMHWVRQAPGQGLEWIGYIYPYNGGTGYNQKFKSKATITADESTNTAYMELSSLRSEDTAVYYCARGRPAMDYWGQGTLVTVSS VL: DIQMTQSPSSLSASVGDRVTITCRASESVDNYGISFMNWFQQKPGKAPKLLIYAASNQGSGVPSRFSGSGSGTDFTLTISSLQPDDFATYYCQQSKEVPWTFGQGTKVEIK", 77.2],
  ["Refmab #1 (antibody, V domains shown, The alanine scan used IgG or Fab; also called hP67.6) VH: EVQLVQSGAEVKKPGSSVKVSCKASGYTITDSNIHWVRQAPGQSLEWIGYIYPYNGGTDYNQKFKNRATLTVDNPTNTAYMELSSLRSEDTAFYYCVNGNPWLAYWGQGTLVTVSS VL: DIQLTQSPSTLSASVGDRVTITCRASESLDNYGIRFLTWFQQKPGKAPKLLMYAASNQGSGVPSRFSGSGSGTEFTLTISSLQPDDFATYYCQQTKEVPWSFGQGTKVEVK", 86.9],
  ["Refmab #2 (antibody, V domains shown, The alanine scan used IgG or Fab) VH: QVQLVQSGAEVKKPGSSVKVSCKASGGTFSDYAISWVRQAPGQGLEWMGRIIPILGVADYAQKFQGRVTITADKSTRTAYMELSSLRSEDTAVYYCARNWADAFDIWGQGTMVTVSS VL: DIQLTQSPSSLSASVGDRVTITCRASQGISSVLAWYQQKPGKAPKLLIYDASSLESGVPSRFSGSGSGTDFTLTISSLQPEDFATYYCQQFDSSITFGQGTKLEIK", 93.2]
]}
